Listed here are compounds together with their documented DC50.
subject.of.test: ER-α in MCF-7 cells (Homo sapiens, UniProt P03372)
Sequence (P03372 1-595): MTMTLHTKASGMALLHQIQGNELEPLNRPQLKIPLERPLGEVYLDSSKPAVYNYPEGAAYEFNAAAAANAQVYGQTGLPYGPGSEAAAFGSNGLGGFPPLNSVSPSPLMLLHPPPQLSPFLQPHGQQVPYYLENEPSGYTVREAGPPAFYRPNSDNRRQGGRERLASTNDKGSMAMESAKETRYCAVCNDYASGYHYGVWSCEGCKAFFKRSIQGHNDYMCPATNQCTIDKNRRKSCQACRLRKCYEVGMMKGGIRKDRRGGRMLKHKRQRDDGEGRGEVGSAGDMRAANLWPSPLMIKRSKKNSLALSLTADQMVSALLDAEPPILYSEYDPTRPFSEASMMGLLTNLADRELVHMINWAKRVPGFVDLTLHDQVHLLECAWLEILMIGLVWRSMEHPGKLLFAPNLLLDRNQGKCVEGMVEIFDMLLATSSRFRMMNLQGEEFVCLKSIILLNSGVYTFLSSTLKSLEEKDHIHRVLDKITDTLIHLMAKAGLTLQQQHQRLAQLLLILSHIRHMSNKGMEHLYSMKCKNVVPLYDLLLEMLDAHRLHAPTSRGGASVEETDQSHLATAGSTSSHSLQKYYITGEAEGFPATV
test.summary: Breast cancer cell ER-α in cell western assay (SP1)
Type: cell-based
Parameters: endogenous in cells; host or cells: MCF-7
cond: SP1 antibody, 4 or 24 hr post compound addition, read-out: ER-α In Cell Western Assay (SP1) IC50

Recorded results for 3 compounds are shown here.
INSERT INTO assay_data (compound_smiles, readout_value) VALUES
  ('CC/C(=C(/c1ccc(/C=C/C(=O)O)cc1)c1ccc2[nH]ncc2c1)c1ccc2c(c1)CCO2', '≤ 100 nM'),
  ('CCOC(=O)/C=C/c1ccc(/C(=C(/CC)c2ccccc2)c2cccc3[nH]ncc23)cc1', '≤ 100 nM'),
  ('CC/C(=C(/c1ccc(/C=C/C(=O)O)cc1)c1ccc2[nH]ncc2c1)c1ccncc1C#N', '> 100 nM');

Input "CC/C(=C(/c1ccc(/C=C/C(=O)O)cc1)c1cccc2[nH]ncc12)c1ccc(F)cc1Cl" . Output DC50: ≤ 100 nM

---

subject.of.test: ER-α in MCF-7 cells (Homo sapiens, UniProt P03372)
test.summary: Breast cancer cell ER-α in cell western assay (SP1)
Format: cell-based
Design: endogenous in cells; host or cells: MCF-7
cond: SP1 antibody, 4 or 24 hr post compound addition, read-out: ER-α In Cell Western Assay (SP1) IC50
property.label: DC50

INSERT INTO results (compound, readout_value) VALUES
  ('CC/C(=C(/c1ccc(/C=C/C(=O)O)cc1)c1ccc2[nH]nc(F)c2c1)c1cscc1C [Compound 312]', '≤ 100 nM');

DC50 measured on CC/C(=C(/c1ccc(/C=C/C(=O)O)cc1)c1ncc2[nH]ncc2n1)c1ccccc1 [Compound 149] = > 100 nM

Entry under test: CC/C(=C(/c1ccc(/C=C/C(=O)O)cc1)c1cc2cn[nH]c2cn1)c1ccccc1 [Compound 81] . Its DC50 was > 100 nM

Per the records, this compound ( CC/C(=C(/c1ccc(/C=C/C(=O)O)cc1)c1ccc2[nH]ncc2c1)c1cccc(Oc2ccc(S(C)(=O)=O)cn2)c1 [Compound 379] ) has DC50 equal to ≤ 100 nM

The compound listed as CC/C(=C(/c1ccc(/C=C/C(=O)O)cc1)c1cnn2ccccc12)c1ccccc1 [Compound 148] shows DC50 equal to > 100 nM

---

subject.of.test: ER-α in MCF-7 cells (Homo sapiens)
Sequence (P03372 1-595): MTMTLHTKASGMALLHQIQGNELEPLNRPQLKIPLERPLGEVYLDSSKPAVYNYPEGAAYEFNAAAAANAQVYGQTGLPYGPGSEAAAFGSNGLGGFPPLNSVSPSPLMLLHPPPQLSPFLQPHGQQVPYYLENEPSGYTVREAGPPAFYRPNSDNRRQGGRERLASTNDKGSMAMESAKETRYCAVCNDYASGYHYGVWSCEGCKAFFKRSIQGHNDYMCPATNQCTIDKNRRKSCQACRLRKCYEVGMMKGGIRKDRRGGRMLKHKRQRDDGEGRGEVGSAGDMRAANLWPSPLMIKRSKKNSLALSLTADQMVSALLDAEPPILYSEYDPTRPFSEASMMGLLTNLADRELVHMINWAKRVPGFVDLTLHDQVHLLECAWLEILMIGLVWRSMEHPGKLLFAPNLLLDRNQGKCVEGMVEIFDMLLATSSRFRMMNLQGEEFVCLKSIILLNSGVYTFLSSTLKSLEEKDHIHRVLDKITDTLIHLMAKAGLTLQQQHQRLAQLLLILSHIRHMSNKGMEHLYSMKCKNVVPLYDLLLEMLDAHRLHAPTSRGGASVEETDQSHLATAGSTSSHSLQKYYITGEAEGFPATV
test.summary: Breast cancer cell ER-α in cell western assay (SP1)
Type: cell-based
Design: endogenous in cells; host or cells: MCF-7
cond: SP1 antibody, 4 or 24 hr post compound addition, read-out: ER-α In Cell Western Assay (SP1) IC50
property.label: DC50

Lab note: measured DC50 of "CC/C(=C(/c1ccc(/C=C/c2nn[nH]n2)cc1)c1ccc2scnc2c1)c1cscc1C" was ≤ 100 nM

---

System: MCF-7 cells
test.summary: Breast cancer cell viability assay (CellTiter-Glo, 5 days)
Type: cell-based
cond: Homo sapiens, MCF7, 120 h, 5 days' compound exposure
pIC50: −log10 of the molar value.
// pIC50 lookup, one value per entry

INSERT INTO results (compound, property_label, readout_value) VALUES
  ('CC/C(=C(/c1ccc2cc(C(=O)O)ccc2c1)c1ccc2[nH]ncc2c1)c1ccccc1 [Compound 449]', 'pIC50', '≥ 7.00'),
  ('CC/C(=C(/c1ccc(/C=C/C(=O)O)cc1)c1ccc2nccn2c1)c1ccc(Cl)cc1Cl [Compound 232]', 'pIC50', '≥ 7.00'),
  ('CC/C(=C(/c1ccc(/C=C/C(=O)O)cc1)c1ccc2[nH]ncc2c1)c1cccc(OCC(=O)O)c1 [Compound 347]', 'pIC50', '< 7.00');

Observed pIC50, MCF-7 cells, CC/C(=C(/c1ccc(/C=C/C(=O)O)cc1)c1ccc2[nH]ncc2c1F)c1ccc(Oc2ncccn2)cc1 [Compound 160] : ≥ 7.00

---

System: MCF-7 cells
test.summary: Breast cancer cell viability assay (CellTiter-Glo, 5 days)
Format: cell-based
cond: Homo sapiens, MCF7, 120 h, 5 days' compound exposure
pIC50: −log10 of the molar value.
property.label: pIC50

INSERT INTO measurements (compound, readout_value) VALUES
  ('CC/C(=C(/c1ccc(/C=C/C(N)=O)cc1)c1ccc2scnc2c1)c1ccccc1', '≥ 7.00'),
  ('CC/C(=C(/c1ccc(/C=C/C(=O)O)cc1)c1ccc2[nH]ncc2c1)c1ccc(-c2cnn(C)c2)cc1', '< 7.00'),
  ('CC/C(=C(/c1ccc(/C=C/C(=O)O)cc1)c1ccc2[nH]ncc2c1)c1ccncc1C(F)(F)F', '≥ 7.00'),
  ('CC/C(=C(/c1ccc(/C=C/C(=O)O)cc1)c1ccc2[nH]ncc2c1)c1ccc2nccnc2c1', '≥ 7.00'),
  ('CC/C(=C(/c1ccc(/C=C/C(=O)O)cc1)c1ccc2[nH]ncc2c1)c1cccc(Oc2ccc(S(C)(=O)=O)cn2)c1', '≥ 7.00'),
  ('CC/C(=C(/c1ccc(/C=C/C(=O)O)cc1)c1ccc2scnc2c1)c1cscc1C', '≥ 7.00'),
  ('CC/C(=C(/c1ccc2c(c1)CC(C(=O)O)C2)c1ccc2[nH]ncc2c1)c1ccccc1 (stereo not drawn)', '< 7.00'),
  ('CC/C(=C(/c1ccc(/C=C/C(=O)O)cc1)c1ccc2c(c1)CNC2=O)c1ccccc1', '≥ 7.00'),
  ('CC/C(=C(/c1ccc(/C=C/C(=O)O)cc1)c1ccc2[nH]ncc2c1)c1cccc(-c2cscn2)c1', '≥ 7.00'),
  ('CC/C(=C(/c1ccc(/C=C/C(=O)O)cc1)c1ccc2[nH]ncc2c1)c1ccc(-c2nccs2)cc1', '< 7.00');

# compound "CC/C(=C(/c1ccc(/C=C/C(=O)O)cc1)c1ccc2scnc2c1)c1ccccc1Cl" ; its pIC50 = ≥ 7.00

Measured pIC50 of "CC/C(=C(/c1ccc(/C=C/C(=O)O)cc1)c1ccc2c(c1)COC(=O)N2)c1ccccc1" : < 7.00

---

Test system: MCF-7 cells
test.summary: Breast cancer cell viability assay (CellTiter-Glo, 5 days)
Assay type: cell-based
cond: Homo sapiens, MCF7, 120 h, 5 days' compound exposure
property.label: IC50

Recorded IC50, per entry:
INSERT INTO assay_data (compound_smiles, subject_of_test, property_label, readout_value) VALUES
  ('CC/C(=C(/c1ccc(/C=C/C(=O)O)cc1)c1ccc2[nH]cnc2c1)c1ccccc1', 'MCF-7 cells', 'IC50', '> 100 nM'),
  ('CC/C(=C(/c1ccc(/C=C/C(=O)O)cc1)c1ccc2[nH]ncc2c1)c1cccc(-c2nccs2)c1', 'MCF-7 cells', 'IC50', '≤ 100 nM'),
  ('CC/C(=C(/c1ccc(/C=C/C(=O)O)cc1)c1coc2c(O)cccc12)c1ccccc1', 'MCF-7 cells', 'IC50', '≤ 100 nM'),
  ('CC/C(=C(/c1ccc(OC2(C(=O)O)CC2)cc1)c1ccc2[nH]ncc2c1)c1ccc(F)cc1Cl', 'MCF-7 cells', 'IC50', '> 100 nM'),
  ('CC/C(=C(/c1ccc(/C=C/C(=O)NOC)cc1)c1ccc2[nH]ncc2c1)c1ccc(F)cc1Cl', 'MCF-7 cells', 'IC50', '≤ 100 nM');

Reported IC50 ( "CC/C(=C(/c1ccc(/C=C/C(=O)O)cc1)c1ccc2[nH]ncc2c1)c1ccc(Nc2ccccc2)cc1" ) = ≤ 100 nM

Sure, the documented IC50 for "CC/C(=C(/c1csc(/C=C/C(=O)O)c1)c1ccc2[nH]ncc2c1)c1ccccc1" is > 100 nM

Each recorded value in this set is attributed to patent US9399646B2.
